All figures here come from ChEMBL document CHEMBL4665693.

Test system: HeLa
Experiment: Cytotoxicity against human HeLa cells assessed as reduction in cell viability incubated for 48 hrs by MTT assay
Format: functional, cell-based
Field: IC50. Provide a value for each of the compounds that follow.

// recorded IC50 for C=C1[C@H](O)C[C@@H]2[C@@](C)(CO)CCC[C@@]2(C)[C@@H]1C/C=C(\C)C=O : > 10 µM

// recorded IC50 for CC(=O)O[C@H]1C(=O)[C@@]2(C)[C@H]([C@H](OC(=O)c3ccccc3)[C@]3(O)C[C@H](OC(=O)[C@H](O)[C@@H](NC(=O)c4ccccc4)c4ccccc4)C(C)=C1C3(C)C)[C@]1(OC(C)=O)CO[C@@H]1C[C@@H]2O [PACLITAXEL] : 0.004 µM

// recorded IC50 for C=C1C(=O)[C@]23CC[C@@H]4[C@@](C)(CO)CCC[C@@]4(C)[C@@H]2CC[C@H]1C3 : > 10 µM

// recorded IC50 for C=C1C(=O)[C@]23CC[C@H]4[C@@](C)(CC[C@@H](O)[C@@]45CO5)[C@@H]2CC[C@H]1C3 : 5.1 µM

// recorded IC50 for CC(C)c1cc2c(cc1O)[C@@]1(C)CC[C@H](O)C(C)(C)[C@@H]1CC2=O : > 10 µM

// recorded IC50 for C=C1[C@H](O)C[C@@H]2[C@@](C)(CO)CCC[C@@]2(C)[C@@H]1/C=C/C(C)=O : > 10 µM

// recorded IC50 for C=C1[C@H](O)C[C@@H]2[C@@](C)(CO)CCC[C@@]2(C)[C@@H]1C[C@H]1OC(=O)C=C1C : > 10 µM

// recorded IC50 for C=C1C[C@@]23C[C@@H]1CC[C@H]2[C@]1(C)CCC[C@@](C)(C(=O)O)[C@H]1[C@@H](O)[C@@H]3O : > 10 µM
